biological target: Protein RecA (Mycobacterium tuberculosis, UniProt P9WHJ3); assay: Fluorescence Cell-Free Homogeneous Dose Retest to Identify Inhibitors of RecA-Intein Splicing Activity. [Related pubchem assays (depositor defined):AID2097, AID2223, AID489010, AID492950]; format: functional
Activity calls are given as the source filed them.
reported-metric: EC50

| molecule | reported-metric | result |
| --- | --- | --- |
| Cc1cc(C(=O)c2ccc(C(C)(C)C)cc2)c(NC(=O)CCl)s1 | EC50 | 2970 nM (active) |
| CCOC(=O)C1Nc2c(F)cc(C)cc2C2c3ccccc3CC12 (stereo not given) | EC50 | 36000 nM (active) |
| CCCC(=O)OCCNc1cc(Sc2nc3ccccc3[nH]2)c2nonc2c1[N+](=O)[O-] | EC50 | 657 nM (active) |
| CC1=NN(c2ccccc2)C(=O)/C1=C\c1cc(C)n(-c2cccnc2)c1C | EC50 | 88800 nM (active) |
| COc1cc(C(=O)c2nccc3cc(OC)c(OC)cc23)c([N+](=O)[O-])cc1OC | EC50 | 160 nM (active) |

---

target: Long-chain-fatty-acid--AMP ligase FadD28 (Mycobacterium tuberculosis, UniProt P9WQ59); experiment: Fluorescence polarization aasay to screen for inhibitors that compete for the binding of FadD28 to a bisubstrate Measured in Biochemical System Using Plate Reader - 2147-01_Inhibitor_Dose_CherryPick_Activity.; type: functional, Mycobacterium tuberculosis H37Rv
Sequence (P9WQ59 whole entry): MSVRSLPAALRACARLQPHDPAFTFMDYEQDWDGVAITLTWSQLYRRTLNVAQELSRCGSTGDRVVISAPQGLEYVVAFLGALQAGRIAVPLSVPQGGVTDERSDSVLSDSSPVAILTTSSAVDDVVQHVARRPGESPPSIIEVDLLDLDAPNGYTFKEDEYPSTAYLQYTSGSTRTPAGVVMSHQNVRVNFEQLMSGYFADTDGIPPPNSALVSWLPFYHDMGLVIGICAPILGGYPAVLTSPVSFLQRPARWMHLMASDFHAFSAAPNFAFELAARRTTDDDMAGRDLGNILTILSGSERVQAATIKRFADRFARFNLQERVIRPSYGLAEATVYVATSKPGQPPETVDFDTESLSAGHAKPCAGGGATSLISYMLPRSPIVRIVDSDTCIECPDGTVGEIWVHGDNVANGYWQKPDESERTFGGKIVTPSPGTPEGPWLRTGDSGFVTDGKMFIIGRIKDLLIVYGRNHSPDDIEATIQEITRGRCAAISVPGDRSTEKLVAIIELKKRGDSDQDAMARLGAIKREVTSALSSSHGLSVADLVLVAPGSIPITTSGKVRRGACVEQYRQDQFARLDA
Calls of active or inactive are those of the source.
Entries annotated with measured AC50

| compound | AC50 |
| --- | --- |
| CCN(c1ccc(NC(=O)CSc2ccc3c(c2)OCCO3)cc1)C(C)C | 20.3 µM (active) |
| C/C(NNC(=O)c1ccccc1O)=C1/C(=O)NC(=O)N(Cc2ccccc2)C1=O | 20.4 µM (active) |
| N#C/C(=N\Nc1ccc([N+](=O)[O-])cc1)C(N)=S | 19.5 µM (active) |
| COc1cc(/C=C2\SC(=O)N(CC(=O)Nc3cccc(C)c3)C2=O)ccc1OC(C)C(=O)O (stereo unspecified) | 0.583 µM (active) |
| Cn1cc(/C=N/NC(=O)COc2ccccc2[N+](=O)[O-])c2ccccc21 | > 100 µM (inactive) |
| CCn1cc(CN2CCC(C(=O)Nc3ccc(Oc4cccnc4)cc3)CC2)c(C)n1 | 21.7 µM (active) |

---

Endpoint: AC50. System: Cytochrome P450 3A4 (Homo sapiens). Items follow.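 Also: CYP3A4 tested as one member of a cytochrome P450 panel screen.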
Sequence (P08684 whole entry): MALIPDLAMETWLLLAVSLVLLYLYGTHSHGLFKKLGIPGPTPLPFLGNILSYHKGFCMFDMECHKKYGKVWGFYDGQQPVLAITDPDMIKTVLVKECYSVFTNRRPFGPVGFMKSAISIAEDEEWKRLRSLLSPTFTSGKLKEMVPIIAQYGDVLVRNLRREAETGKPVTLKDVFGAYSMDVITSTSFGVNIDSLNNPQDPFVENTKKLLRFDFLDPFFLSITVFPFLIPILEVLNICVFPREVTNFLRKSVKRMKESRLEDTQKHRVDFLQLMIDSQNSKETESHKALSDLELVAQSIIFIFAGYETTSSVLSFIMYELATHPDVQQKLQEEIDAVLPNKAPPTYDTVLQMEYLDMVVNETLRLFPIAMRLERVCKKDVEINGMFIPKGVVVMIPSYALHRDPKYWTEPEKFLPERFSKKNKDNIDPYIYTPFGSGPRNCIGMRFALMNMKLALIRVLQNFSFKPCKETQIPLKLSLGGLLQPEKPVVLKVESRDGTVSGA
reported-metric: AC50

| molecule-smiles | reported-metric | result |
| --- | --- | --- |
| CC(=O)NCCNc1ncnc2ccc(-c3cccc(NS(C)(=O)=O)c3)cc12 | AC50 | 7.94 µM (inconclusive) |
| CCOc1cc(NC(=O)C2CCCCC2)c(OCC)cc1NC(=O)c1ccco1 | AC50 | 1.12 µM (inconclusive) |
| CCn1c(SCc2ccc(C(=O)Nc3nccs3)cc2)nnc1-c1ccc(NC(C)=O)cc1 | AC50 | 1.12 µM (inconclusive) |
| COc1ccc2c(c1[N+](=O)[O-])CCC/C2=N/OC(=O)c1ccccc1SC | AC50 | 15.8 µM (inconclusive) |
| COCCn1c(=O)c(C)nc2cnc(Oc3ccccc3)nc21 | AC50 | 25.1 µM (inconclusive) |
| Cc1ccc(N=Nc2c(=O)[nH]n3c(C)cc(C)nc23)cc1 | AC50 | 25.1 µM (inconclusive) |
| Cc1ccc(NC(=O)CN2C(=O)S/C(=C\c3cccn3C)C2=O)cc1 | AC50 | 7.08 µM (inconclusive) |
| COc1ccc(C(=O)CCN(C)C)c2ccccc12 | AC50 | 0.316 µM (inconclusive) |
| Nc1ccc(C(=O)N/N=C/c2ccccc2)cc1 | AC50 | 15.8 µM (inconclusive) |
| CCCN(CC1CC1)c1nc(C)nc(Nc2c(Cl)cc(Cl)cc2Cl)c1Cl | AC50 | 15.8 µM (inconclusive) |
| CCCC[C@@H]1CN2[C@H](c3ccc(Br)cc3)[C@@H](C)CC[C@H]2C(=O)O1 | AC50 | 5.01 µM (inconclusive) |

---

target: Small ubiquitin-related modifier 1 (Homo sapiens); assay: inhibitors of SUMO1 peptide binding, dose response, biochemical, fluorescence polarization, uHTS hits (AID 624382); assay type: functional; conditions: read-out: IC50_Mean
Sequence (P63165 whole entry): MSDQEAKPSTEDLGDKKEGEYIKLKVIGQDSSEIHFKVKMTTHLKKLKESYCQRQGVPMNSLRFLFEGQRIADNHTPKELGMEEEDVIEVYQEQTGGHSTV
The source made the active and inactive calls.
Possible outcomes: label 1 for active, label 0 for inactive

| compound | class-label |
| --- | --- |
| Cn1ccc(=Nc2ccc(NC(=O)c3ccc(/N=c4\ccn(C)c5ccc([N+](=O)[O-])cc45)cc3)cc2)cc1 | label 0 |
| COc1ccc(C=NNc2ccc(S(=O)(=O)Nc3ccccc3C(=O)O)cc2[N+](=O)[O-])c(OC)c1 | label 1 |
| COC(=O)c1cc(O)cc(OC)c1Oc1cc(C)cc(O)c1C(=O)O [ASTERRIC ACID] | label 0 |
| N#Cc1c(O)nc(SCC(=O)N2c3ccccc3Sc3ccccc32)nc1-c1ccccc1 | label 0 |

---

biological target: Sentrin-specific protease 6 (Homo sapiens); type: functional;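 also: Luminescence-based dose-response confirmatory assay of SENP6 inhibition, following up an ultra-high-throughput screen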
Sequence (Q9GZR1 whole entry): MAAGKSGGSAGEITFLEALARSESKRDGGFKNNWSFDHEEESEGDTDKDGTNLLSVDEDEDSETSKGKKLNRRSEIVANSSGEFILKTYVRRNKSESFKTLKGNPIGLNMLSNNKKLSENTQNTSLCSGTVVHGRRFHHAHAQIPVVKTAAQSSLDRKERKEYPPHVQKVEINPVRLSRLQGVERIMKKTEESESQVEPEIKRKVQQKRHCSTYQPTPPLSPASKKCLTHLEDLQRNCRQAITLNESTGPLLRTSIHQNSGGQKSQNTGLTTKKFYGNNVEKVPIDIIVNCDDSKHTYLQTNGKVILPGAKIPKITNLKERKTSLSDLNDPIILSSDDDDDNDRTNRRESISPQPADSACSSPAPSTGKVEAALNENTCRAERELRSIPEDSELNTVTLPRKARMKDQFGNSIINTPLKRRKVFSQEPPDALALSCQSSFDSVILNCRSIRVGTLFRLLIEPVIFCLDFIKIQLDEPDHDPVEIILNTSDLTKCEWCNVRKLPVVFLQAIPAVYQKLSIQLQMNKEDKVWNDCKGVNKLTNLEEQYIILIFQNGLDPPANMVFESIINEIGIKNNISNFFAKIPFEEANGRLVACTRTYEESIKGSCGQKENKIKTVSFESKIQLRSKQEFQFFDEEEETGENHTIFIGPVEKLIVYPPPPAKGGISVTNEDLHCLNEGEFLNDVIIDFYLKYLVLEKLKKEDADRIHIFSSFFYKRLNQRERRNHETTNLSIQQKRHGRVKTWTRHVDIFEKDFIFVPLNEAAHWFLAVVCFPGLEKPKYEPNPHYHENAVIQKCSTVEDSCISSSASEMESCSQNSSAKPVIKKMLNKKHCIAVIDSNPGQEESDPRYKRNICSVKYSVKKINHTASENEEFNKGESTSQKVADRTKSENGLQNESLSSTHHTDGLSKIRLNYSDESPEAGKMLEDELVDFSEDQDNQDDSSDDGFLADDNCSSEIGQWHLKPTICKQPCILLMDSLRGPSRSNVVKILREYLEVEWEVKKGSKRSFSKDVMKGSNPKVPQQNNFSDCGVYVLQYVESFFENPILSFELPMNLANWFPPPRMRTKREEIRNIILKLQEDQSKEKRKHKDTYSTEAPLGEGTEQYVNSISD
The source made the active and inactive calls.
Possible outcomes: true (1) = active, false (0) = inactive

| molecule | class-label |
| --- | --- |
| COc1cc(C(=O)c2nccc3cc(OC)c(OC)cc23)c([N+](=O)[O-])cc1OC | true (1) |
| c1ccc2c(Nc3nnc(-c4ccncc4)s3)cccc2c1 | true (1) |
| CC(C)(C)c1ccc(C(=O)NCCOc2ccccc2)cc1 | false (0) |
| O=C(Nc1cccc(Cl)c1)c1ccc(OC(=S)N2CCOCC2)cc1 | false (0) |
| Cc1nc(C)c(-c2csc(Nc3ncccc3C)n2)s1 | true (1) |
| CC1Cc2cc(/C=C3/SC(=S)NC3=O)ccc2O1 (stereo unspecified) | true (1) |

---

Endpoint: AC50. System: Cytochrome P450 2D6 (Homo sapiens). Items follow.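 Also: CYP2D6 member of a cytochrome P450 panel assay.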
Sequence (P10635 whole entry): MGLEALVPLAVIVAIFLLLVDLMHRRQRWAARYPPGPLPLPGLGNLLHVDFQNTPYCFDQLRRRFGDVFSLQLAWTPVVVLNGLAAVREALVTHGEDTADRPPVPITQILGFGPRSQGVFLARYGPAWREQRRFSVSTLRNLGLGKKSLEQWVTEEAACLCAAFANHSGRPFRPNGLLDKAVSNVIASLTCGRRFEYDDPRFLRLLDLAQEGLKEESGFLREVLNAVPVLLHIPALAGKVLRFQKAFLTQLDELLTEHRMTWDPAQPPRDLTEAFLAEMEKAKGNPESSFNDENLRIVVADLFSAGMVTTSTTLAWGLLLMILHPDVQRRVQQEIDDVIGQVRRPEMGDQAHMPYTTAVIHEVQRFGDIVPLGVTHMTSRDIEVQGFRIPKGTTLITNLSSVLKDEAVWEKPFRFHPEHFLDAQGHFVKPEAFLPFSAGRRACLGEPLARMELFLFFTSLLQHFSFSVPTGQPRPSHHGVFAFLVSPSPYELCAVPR
reported-metric: AC50

| compound | result |
| --- | --- |
| Cn1cccc1C(=O)N1CCC[C@@]2(CCN(Cc3ccc(C#N)cc3)C2)C1 | 20 µM (inconclusive) |
| CCCCC(=O)Nc1ccc(C)c(O)c1 | 17.8 µM (inconclusive) |
| CCS(=O)(=O)c1ccc(C(=O)Nc2ccccc2)c(Cl)c1Cl | 31.6 µM (inconclusive) |
| COCCNc1ccnc(-c2ccccc2CN(C)C)n1 | 39.8 µM (inconclusive) |
| O=c1c(CCc2ccccc2)nc2cnc(N3CCNCC3)nc2n1Cc1ccc(F)cc1 | 25.1 µM (inconclusive) |
| Cc1ccc(N(C(=O)Cn2nnc(-c3ccc(F)cc3)n2)C(CC(C)C)C(=O)NCC2CCCO2)cc1 (stereo unspecified) | 25.1 µM (inconclusive) |
| CCc1c2c(nc3c(C(C)C)cccc13)-c1cccc(=O)n1C2 | 39.8 µM (inconclusive) |
| CCCn1nc(C(=O)NCC(C)(C)N2CCOCC2)c2ccccc2c1=O | 3.98 µM (inconclusive) |
| CS(=O)(=O)Nc1cccc(-c2cncnc2NCc2cccnc2)c1 | 39.8 µM (inconclusive) |
| Cc1nc2c(C(=O)N3CCOCC3)cnn2c(C)c1Cc1ccc(Cl)cc1 | 25.1 µM (inconclusive) |
| O=C(N/N=C\c1ccc2c(c1)CCC2)c1ccccc1O | 5.01 µM (inconclusive) |

---

test: Luminescence Cell-Based Dose Response HTS to Identify Activators of Luciferase Translation or Activity in H4 […] Cells. [Related pubchem assays: 1829 (Project Summary), 1814 (Primary HTS)]; format: functional
The source made the active and inactive calls.

| molecule | EC50 |
| --- | --- |
| Nc1c(-c2cccc(Cl)c2)cnc2c(-c3ccccc3)cnn12 | < 0.1 µM (inconclusive) |
| CC(C)c1n[nH]c2c1C(c1ccco1)C(C#N)=C(N)O2 (stereo not given) | > 120 µM (not active) |
| N#C/C(=C\c1ccc(Cl)cc1)c1nc2ccc[nH]c-2n1 | 14 µM (active) |
| CC1CCc2sc3nc(N4CCN(CCO)CC4)n4ncnc4c3c2C1 (stereo not given) | 8.04 µM (active) |
| O=c1c2ccccc2nc(-c2ccco2)n1Cc1ccccc1 | 8.08 µM (active) |

---

molecular target: Genome polyprotein (dengue virus type 2, UniProt P29990); test: Dengue-2 NS5 methyltransferase inhibitors, primary screen, biochemical, confirmation dose response (AID 588689); type: functional
Active and inactive are the calls of the source.
Entries annotated with measured IC50
reported-metric: IC50

| molecule-smiles | result |
| --- | --- |
| O=C(O)CCn1cc(C=C2C(=O)NC(=S)NC2=O)c(-c2cccc(Br)c2)n1 | 6.04 µM (active) |
| O=C1C(Cl)=C(NC(=O)c2ccccc2)C(=O)C(Cl)=C1NC(=O)c1ccccc1 | 3.53 µM (active) |
| O=C(O)c1ccc(Nc2cc(Cl)c3nonc3c2[N+](=O)[O-])cc1 | 12 µM (active) |
| N#Cc1c(O)nc(SCC(=O)N2c3ccccc3Sc3ccccc32)nc1-c1ccccc1 | 38.9 µM (active) |
| O=C1NN(c2ccc(Cl)cc2)C(=O)/C1=C\c1ccc(-c2cccc(C(=O)O)c2)o1 | 77.3 µM (active) |
| COC(=O)c1ccc(COc2ccccc2/C=N/Nc2cccc(C(=O)O)c2)cc1 | 76.2 µM (active) |
| CCc1c(C)sc(NC(=O)OC)c1C(=O)N1CCCCC1 | > 100 µM (active) |
